Tested on: TNFα release by human PBMCs
ASSAY_PROTOCOL: Cytokine (TNFα) release by LPS stimulated human PBMCs, ELISA
Assay type: cell-based
CONDITION_DESCRIPTION: Homo sapiens, PBMC, 24 h, Table 5, LPS 1 μg/mL, ELISA of supernatant
pEC50: −log10 of the molar value.
RESULT_TYPE: pEC50

[in] Given C[C@@H]1CN(c2ccc(Nc3ncc(-c4csc(C(N)=O)c4)n4ncnc34)cc2)[C@@H](C)CN1C , state its recorded pEC50.
[out] 6.30 to 7.00
